# Experimental Details: Solubility n JP2 fluid
# Assay type: physicochemical
Reported Property: solubility (µg/mL)
Give the number; µg/mL is assumed, so skip it.

// solubility value for `COc1ccc(N2CCOCC2)c2cc(C(=O)Nc3ccncc3)oc12` : 87

// solubility value for `COc1ccc(N2CCOCC2)c2cc(C(=O)Nc3ccc(CN4CCC(O)CC4)cc3)oc12` : 47

// solubility value for `COc1ccc(N2CCOCC2)c2cc(C(=O)Nc3ccc(Cn4ccnc4)cc3)oc12` : 2

// solubility value for `CNC(=O)c1cc2c(N3CCOCC3)ccc(OC)c2o1` : 97

###

# Measured On: Adenosine receptor A2a (Homo sapiens) (UniProt P29274)
# Sequence (P29274 whole entry): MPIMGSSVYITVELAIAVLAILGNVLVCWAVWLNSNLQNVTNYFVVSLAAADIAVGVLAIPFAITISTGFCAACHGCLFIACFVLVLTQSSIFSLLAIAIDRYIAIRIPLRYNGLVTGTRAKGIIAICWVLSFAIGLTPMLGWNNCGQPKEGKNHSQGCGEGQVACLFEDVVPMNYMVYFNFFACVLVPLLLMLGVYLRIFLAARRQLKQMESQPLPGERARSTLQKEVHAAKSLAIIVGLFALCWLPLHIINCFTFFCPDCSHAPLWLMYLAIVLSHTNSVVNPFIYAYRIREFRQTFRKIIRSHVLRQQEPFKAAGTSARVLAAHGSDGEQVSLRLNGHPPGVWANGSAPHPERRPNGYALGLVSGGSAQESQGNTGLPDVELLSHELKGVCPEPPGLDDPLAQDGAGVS
# Experimental Details: Displacement of [3H]CGS21680 from human adenosine A2A receptor at 0.01 umol/L by scintillation counting
Reported Property: inhibition
Param answer (str): number followed by unit.

// inhibition value for `COc1ccc(N2CCOCC2)c2oc(C(=O)Nc3ccncc3)cc12` : 26%

// inhibition value for `COc1ccc(N2CCOCC2)c2cc(C(=O)NC3CCN(c4ncccn4)CC3)oc12` : -2%

// inhibition value for `COc1ccc(-c2ccncc2)c2cc(C(=O)Nc3ccncc3)oc12` : 18%

// inhibition value for `CNC(=O)c1cc2c(N3CCOCC3)ccc(OC)c2o1` : 23%

// inhibition value for `COc1ccc(N2CCOCC2)c2cc(C(=O)Nc3ccc(CN4CCC(O)CC4)cc3)oc12` : 39%
